experimentSummary: yeast display, Sf9 membrane polyspecificity reagent, FACS + sequencing; frameworks hold sequencing errors
endpointLabel: polyreactivity (PSR sort gate)

{"columns": ["sequenceEntry", "result"],
 "data": [
  ["QVQLVESGGGLVQAGGSLRLSCAASGRTSRRNAMGWYRQAPGKERELVAATSGSGTSTYYADSVKGRFTISRDNAKNTVYLQMNSLKPEDTAVYYCNTDTSRRAVQYDYWGQGTQVTVSS", "high polyreactivity"],
  ["QVQLVESGGGLVQAGGSLRLSCAASGSIFYNYAMGWYRQAPGKERELVAAISGSGGSTYYADSVKGRFTISRDNAKNTVYGQMNSLKPEDTAVYYCSTSGPQYYSRNFDYWGQGTQVTVSS", "low polyreactivity"],
  ["QVQLVESGGGLVQAGGSLRLSCAASGSIFYGNAMGWYRQAPGKERELVAGISWSGGSTYYADSVKGRFTISRDNAKNSVFLQMNSLKPEETAVYYCAAVRWGSYTLSDDYWGQGTQLTVSS", "low polyreactivity"],
  ["QVQLVESGGGLVQAGGSLRLSCGASGRTFRRYAIGWYRQAPGKERELVATITSNGGSTYYADSVKGRFTISRDNAKNTVDLQLNSLTPEDTAVYYCARDLTYYRSRYDYWGQGTQVTVSS", "high polyreactivity"]
]}

Q: Please report the recorded polyreactivity (PSR sort gate) for QVQLVESGGGLVQAGGSLRLSCAASGRTFDGYAMGWYRPAPGKERELVAAISWGGGSTYYADSVKGRFTISRDNAKNTVYLQMNSLKPEDTAVYYCNAYTYYYGNDYWGQGTQVNVSS .
Ans: high polyreactivity

* * *

experimentSummary: yeast display, Sf9 membrane polyspecificity reagent, FACS + sequencing; frameworks hold sequencing errors
endpointLabel: polyreactivity (PSR sort gate)

Known results for sequences:
{"columns": ["sequenceEntry", "endpointLabel", "result"],
 "data": [
  ["QVQLVESGGGLVQAGGSHRLICAASGFIVSYHAMGWYRPAPGKESELVAAISSRGGSTYYADSVKGRFTISRDNAKNTVYLQMNSLKPEDTAVYYCATAGLTYRALRYYWGQGTQVTVSS", "polyreactivity (PSR sort gate)", "high polyreactivity"],
  ["QVQLVESGGGLVQAGGSLRLSCAASGRIFGKYAMGWYRQAPGKERELVAAISSSGGSTYYADSVKGRFTISRDNAKNTVYLQMNSLKPEDTAVYYCAADAAVSRVYPYDYWGQGTQVTVSS", "polyreactivity (PSR sort gate)", "high polyreactivity"],
  ["QVQLVESGGGLVQAGGSLRLSCDASGFTFVSYAMGSYRQAPGKERELVAVISYRAGSTYYADSVKGRFTISRDNAKNTVYLPMYSLKPEDTAVYYCATDRYSRRNDYWGQGTQVTVSS", "polyreactivity (PSR sort gate)", "high polyreactivity"],
  ["QVQLVESGGGIVQAGGSLRLSCAASGFTFWSYAMGWYRPAPGKERELVAAISRGGSTSYADSVKGRFTISRDNAKNTVYLQLNSLKPEDTAVYYCAVVRARAYVYHGFYWGQGTQVTVSS", "polyreactivity (PSR sort gate)", "high polyreactivity"],
  ["QVQLVESGGGLVQAGGRLRLSCAASGRIFGINVMGWYRQAPGKERELVARITGRGGRTYYADSVKGRFTISRDNAKNTVYLQMNSLKPEDTAVYYCAADASYEAYDYWGQGTQVTVSS", "polyreactivity (PSR sort gate)", "high polyreactivity"],
  ["QVQLVESGGGLVQAGGSLRLSCAASGSIFKFYTMGWYRQAAGKEWELVATISRSGGGTFYADSVKGRFTISRDNAKNTVYLQMNSLKPEDTAVYYCAADPAFTHYPYGYGYWGQGTQVTVSS", "polyreactivity (PSR sort gate)", "low polyreactivity"]
]}

Q: Please report the recorded polyreactivity (PSR sort gate) for QVQLQESGGGMVQAGGCLRLSCAASVTIFDPDYMGWYHQAPGKERELVASISLGRITYYADSVKGRFTINRDNAKNTVFLQMISLKPEDTAVYYCAAVTGLFYHPFYKYNYWGQGTQVTVSS .
Ans: high polyreactivity

Q: Next: QVQLVESGGGLVQAGGSLRLSGAASGYIFLGNAMGWYRQAPGKERELVAAISRSGGSTYYADSVKGRFTISRDNAKNTVYFHMNSLKPEYTAVYYCAADLPNPKWYGYDYWGQGTQVNVSS
Ans: high polyreactivity

Q: Next: QVQLVESGGGLVQAGGSLRLSCAASGFTFRRYDMGWYRQAPGKERELVAAITASGGNTYYADSVKGRFTISRDNAKNTVYLQMNSLKPEDTAVYYCAARQYRYKYDYWGQGTQVTVSS
Ans: high polyreactivity

Q: Next: QVQLVESGGGLVQAGGSLRLSCAASGSTFTFYAMGSYRQAPGKERELGAAINGRGGSTYYADSVKGRFTISRDNANNTVYLQMNSLKPEDTADYYCATRLYYSVRYNMGYWGQGTQVTVSS
Ans: high polyreactivity

Q: Next: QVQLVESGGGLVQAGGSLRLSCAASGSIIHFYAMGWYRQAPGKERELVAAITSGTSTYYADSVKGRFTISRDNAKNTVYLQMNSLKPEDTAVYYCAAEASHYYYNAYPSYGGSDYWGQGTQVNVSS
Ans: low polyreactivity

* * *

experimentSummary: yeast display, Sf9 membrane polyspecificity reagent, FACS + sequencing; frameworks hold sequencing errors
endpointLabel: polyreactivity (PSR sort gate)

{"columns": ["sequenceEntry", "polyreactivity (PSR sort gate)"],
 "data": [
  ["QVQLVESGGGLVQAGGSLRLSCAASGFTFRDNAMGRYRQAPGKERELVAAITWDGGSTYYADSVKGRFTISRDNEKNTVYLQMNSLKPEDTAVYYCAASRYYPRYFKRYYYWGQGTQVTVSS", "high polyreactivity"],
  ["QVQLVESGGGLVQAGGSLRLSCAASGFIFYTYTRGWSRQAHGKERELVAAISYSGGRTYSADSVKGRFTISRDNAKNTVYLQMNSLKPEDTAVYYCAARRYYNSVANENNYWGQGTQVTVSS", "high polyreactivity"],
  ["QVQLVESGGGLVQAGGSLRLSCAASGSIFDLYVMGWYRQAPGKERELVAAISLIGGSTSYADSVKGRFTISRDNEKNTVYLHRKSLKPEDTAVYYCAVEKFFRAEYDHWGLGTQVTVSS", "low polyreactivity"],
  ["QVQLVESGGGLVQAGGSLRLSCSASGGIFSAYAMGWYRQSPGKERELVAAISRTGGSTYYADSVKGRFTISRDNAKNTVYLQMNSLKPEDTAVYYCNAVYRRYPEFDYWGQGTQVTVSS", "high polyreactivity"],
  ["QFQLVESGGGLVQAGGSLRLSCAASGIIFSLYAMGWYIQAPGKERELVAAITTGGRTYYADSVKGRFTISRDNAKNTVYFQMNSLKPEDTAVYYCAAQGPWQGGTTLSTNRGYWGQGTQVTVSS", "high polyreactivity"],
  ["QVQLVESGAGLVQAPGSLRLSCAASGRTFPRNAMGRYRQAPGKERDLVATISLSGGSTYYADSVKGRFTISRDNAKNTVYLQMNSLKPEDSADYYCARTRNPWPTSFDYWGQGTQVTVSS", "low polyreactivity"]
]}

Q: Please report the recorded polyreactivity (PSR sort gate) for QVQLVESGGGLDQAGGSLRLSCAPSGRIFYTNAMGWYRQAPGKERELVAAISSGGGRTYYADSVKGRFTISRDNAKNTVYLQMNSLKPEDTAVYYCAASNVGYRSYSRGFDYWGQGTQVTVSS .
Ans: high polyreactivity

Q: Next: QVQLVESGRGLVQAGGSLRLSCAASGRIFDRNAMGWYRDAPGKERELVAAIDDSVGDTSYADSVKGRFTISRDNAKNTVYLQMNSLKPEDTSVFYCNAGYADFVTYPRYYYWGQGTQVTVSS
Ans: low polyreactivity

Q: Next: QVQLVESGGGLVQAGGSLRLSCADSGGTFFGYAMGWYRQAPGKERELVAAIRWSDGRTYYADSVKGRFTISRDNAKNTVFLQMNSLKPEDTAVYYCNADDARLFDYWGQGTQVTVSS
Ans: low polyreactivity

Q: Next: QVQVVESGGGLVQAGGSLRLSCAASGRIFYQNAMGWYRPAPGKERELVADISSGGSTYYADSVKGRFTISRDNAKNTVYLQMNSLKPEDTAVYYCNTPSGPGTVGSYRRIWYGYWGQGTQVTVSS
Ans: low polyreactivity

Q: Next: QVQLVESGGGLVQAGGSLRLSCAASGFIFQWYAMGWYRQAPGKERELVAAISIGDSTYYADSVKGRFTISRDNAKNTVYLQMNSLKPADTAVYFCNADPWGYYSVIPLYEYDYWGQGTQVTVSS
Ans: low polyreactivity

* * *

experimentSummary: yeast display, Sf9 membrane polyspecificity reagent, FACS + sequencing; frameworks hold sequencing errors
endpointLabel: polyreactivity (PSR sort gate)

Known results for sequences:
{"columns": ["sequenceEntry", "result"],
 "data": [
  ["QVQLVESGGGLVQAGGSLRLSCAASGSILDSNAMGWYRQAPGQERELVAAISRSGVSTHYADSVKGRFSISRDNAKNTVYLQMNSLKPEDTAVYYCARTGQSLYSRYYYWGQGTQVTVSS", "low polyreactivity"],
  ["QVQLVESGGGLVQAGGSLRLSCAASGGTFRVYAMGWYRQAPGKERELVAAITGRGGSTYYADSVKGRFTISRDNAKNTVYLQMNSLKPEETAVYYCAKDPVTTYYKYDYWGQGTQVTVSS", "low polyreactivity"],
  ["QVQLVESGGGLVQAGGSLRLSCAASGTIFGYYAMGWDREAPGKERELVAAITVSGSRTYYADSVKGRFTISRDKAKNTVYLQMNCLKPEATAVYYCAARYVSRYWAGRYPTRQRDSWGQGTQVTVSS", "high polyreactivity"],
  ["QVHLVESRGGLVQAGGSLSLSCAASGITFYIYAMGWYRQAHGKERELVAAFTTSGDSTYYADSVKGRFTISRDNAKNTVYLQMNSLKPEDTAVYDCAAEYWYTYSWGQGTQVTVLS", "low polyreactivity"]
]}

Q: Please report the recorded polyreactivity (PSR sort gate) for QVQLVESGGGLVQAGGSLRLSCAASGFISGVNTMGWYSQAPGKERELVAAISSGGRTHYADSVKGRFTISRDNAKNTVYLQMNSLKPEDTAVYYCATRVRSTTRYYYWGLGTQVTVSS .
Ans: high polyreactivity
